assay: reduction of polyQ htt aggregates in cells – imaging, exon1htt(103Q)mCFP cells, high-content imaging, primary screen (AID 483); conditions: exon1htt(103Q)mCFP cell line, aggregate imaging, at 2 µM; measured here: cell count, toxicity;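 also: compound exposure lasted 3 days before fixation; percent of the per-plate median nuclei count of sample wells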
REPORTED METRIC: nuclei count (%)
Your answer is read as %, so omit the unit and give the number.

Value of measured nuclei count for the entry CCN(CC)CCN1C(=O)c2oc3ccc(F)cc3c(=O)c2C1c1ccncc1 (stereo not given) : 102

The value of nuclei count measured for the molecule `O=C(CSc1nc2ccccc2s1)N1CCN(C(=O)c2ccco2)CC1` turned out to be 104

Short answer for `COc1ccccc1N(CN1CCCC1=O)C(=O)c1c(F)cccc1Cl` : nuclei count was 84.8

The molecule listed as `Cc1ccc(C)c(N(CC(=O)NCc2ccco2)C(=O)CCC(=O)Nc2ccccn2)c1` has a reported nuclei count of 114

For reference, reported nuclei count for `N/C(=N/O)c1nc(N2CCCCC2)nc(N2CCCCC2)n1` stands at 53.7

====

test: inhibitors of TNFa-induced NFkB p65 translocation, primary screen, imaging, HUVEC, MLSMR starter and 10KST1 sets (AID 438); settings: HUVEC TNFa-induced p65 nuclear translocation; measured here: nuclei count (cytotoxicity indicator), at 2.08 µM;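 also: compound added about 3h40 before a 20 min TNFalpha stimulation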
// NOT MET strictly below 500 in cell count; MET otherwise

Ask: Test whether the molecule `CCc1nc(SCc2cc(Cl)ccc2OC)n[nH]1` records cell count of 500 or higher.
Result: MET

Ask: Determine whether measured cell count meets or exceeds 500 for CCOC(=O)N1CCC2(O)CCCCC2C1c1ccc(F)cc1 (centres undefined)
Result: NOT MET

Ask: Does the reported cell count for CC1=C(C(N)=O)C(c2ccncc2)n2nc(-c3ccccc3Cl)nc2N1 (centres undefined) fall at or above the 500 mark?
Result: MET

Ask: Tell me whether cell count is at least 500 here: `Cc1ccc(OCCC(=O)OCC(=O)C(C)(C)C)cc1`
Result: MET

Ask: Exam item: decide whether the reported cell count for `O=C(OCn1nnc2ccccc2c1=O)c1cc2ccccc2o1` is at least 500.
Result: MET

Ask: Confirm if cell count reported for the molecule Cc1ccc(N(C(C)C(=O)Nc2ccc(S(=O)(=O)N3CCOCC3)cc2)S(C)(=O)=O)cc1 (centres undefined) is 500 or above.
Result: MET

Ask: Textbook exercise: given the entry `COc1ccccc1NC(=O)CSc1nnnn1-c1ccc2c(c1)OCO2` , state whether its cell count is greater than or equal to 500.
Result: NOT MET

Ask: Evaluate `CCCN1C=CC(=C2C(=O)c3ccccc3C2=O)C=C1` : cell count at minimum 500?
Result: NOT MET

Ask: Please indicate if the recorded cell count for `CCCCN(C)C(=O)c1cn(C)c2ccc(S(=O)(=O)N(C)C)cc2c1=O` meets or exceeds 500.
Result: MET

Ask: Is cell count for `O=c1c2ccccc2nc(SCc2nnc(-c3ccccc3Br)o2)n1-c1ccccc1` at or above 500?
Result: NOT MET

Ask: Is cell count for `CN(c1ccccc1)S(=O)(=O)c1ccc(C(=O)OCC(=O)NCc2ccco2)cc1` at or above 500?
Result: MET

Ask: API: above_or_equal(metric=cell count, cutoff=500) for item `CCCSc1nnc(-c2ccccc2NC(=O)CC)c(=O)[nH]1`
Result: MET

Ask: Exam item: decide whether the reported cell count for `N#CCC(=O)N1CCn2c1nc1ccccc12` is at least 500.
Result: NOT MET

Ask: Kindly determine if cell count recorded for `N#CCCCCn1c(-c2cncs2)nc2ccccc21` is above or exactly 500.
Result: NOT MET

====

assay: inhibitors of TNFa-induced NFkB p65 translocation, primary screen, imaging, HUVEC, MLSMR starter and 10KST1 sets (AID 438); details: HUVEC TNFa-induced p65 nuclear translocation; at 2 µM, stronger effect = higher value, 0% TNFa-plus-vehicle, 100% no-TNFa wells;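 also: compound added about 3h40 before a 20 min TNFalpha stimulation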;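 as to inhibition: signal is the nuclear over cytoplasmic p65 intensity ratio per well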
Calls of active or inactive are those of the source.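 Rule for the calls: active = inhibition above 20% together with a positive visual image hit; inconclusive = visual image hit but inhibition not above 20%; inactive = no visual image hit.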
Answer each item with its documented inhibition.

Reported inhibition ( `Cc1cc(C)nc(N2CCC(C(=O)NC3CCCCCC3)CC2)n1` ) = -11.2% (inactive)

response.value for COc1ccc(Cn2nnnc2C(c2cccs2)N2CCOCC2)cc1 (configuration not stated) (field: inhibition) = -4.8% (inactive)

Reported inhibition ( `O=C(CCn1c(=O)oc2ccccc21)NCc1ccco1` ) = -5.9% (inactive)

Record `O=C(OCc1nnc(-c2ccc(Cl)cc2)o1)c1ccc(=O)n(Cc2ccccc2)n1` . Reported inhibition: 1.7% (inactive)

Sample `CC(C)OC(=O)CSc1nnc(-c2ccc(O)cc2)n1Cc1ccccc1` ; inhibition observed: -1% (inactive)

According to the records, this compound `CC(C)(O)C#Cc1ccc(C(=O)N2CCN(C(=O)c3ccco3)CC2)cc1` displays inhibition of -7.8% (inactive)

Value of measured inhibition for the entry `CCCn1cc(SCC(N)=O)c2ccccc21` : -8% (inactive)

====

experiment: TLR3 IRF3 reporter activation blockers – cell-based, poly I:C stimulus, luciferase, 10K MLSCN set, primary screen (AID 602277); conditions: HEK293-TLR3 RL24 IRF3 luciferase reporter, at 10 µM
Calls of active or inactive are those of the source.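 How the source made its calls: active means inhibition of the reporter signal at or above 50%; inactive means inhibition below 50%.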
The categories you may choose from are Y = active, N = inactive

Ask: Recorded call for CC(=O)c1ccc(NC2OC(C)C(O)C(O)C2O)cc1 (centres undefined) ?
Result: N

Ask: Test call for this compound, please: `COc1ccc(OC)c(CNC(=O)COc2cc(=O)n(C)c3ccccc23)c1`
Result: N

Ask: How did this test come out for CCOC(=O)C1CCCN(CCC(C)c2ccccc2)C1 (centres undefined) ?
Result: N

Ask: Could you please tell me the result logged for `Fc1ccc(-c2ccc(-c3nn4c(-c5ccco5)nnc4s3)o2)cc1` in this assay?
Result: N

Ask: Each compound tested received a call. Report the one for `COc1cccc(-n2ccnc2SCC(=O)N2CCc3ccccc32)c1` .
Result: N

Ask: // outcome(item) with item = C=C(C)c1cccc(C(C)(C)NC(=O)NCC2CCCO2)c1 (centres undefined)
Result: N

Ask: Assay result, entry `CC(=O)Nc1ccc(OC(=O)c2cccs2)cc1` — outcome?
Result: N

Ask: Hi, do you know how `Cc1nn(C(=O)c2ccc3c(c2)OCO3)c(N)c1-c1ccccc1` came out in this test?
Result: N

Ask: Hello, I am checking results. What call was entered for Cc1ccc(C(c2sc3ncnn3c2O)N2CC(C)CC(C)C2)cc1 (centres undefined) ?
Result: N

Ask: Given `c1cn2cc(CSC3CCCCC3)nc2s1` , state the outcome it received in this test.
Result: N

Ask: Called result for COc1ccc(-c2nnc(SCC(=O)NC(C)c3ccccc3)o2)cc1 (centres undefined)
Result: N

Ask: Short answer needed: outcome of this test for `COCCNC(=O)c1snc2ccc(Cl)cc12` ?
Result: N

Ask: Record request — test call for `Cc1nc2ccc(N3C(=O)CCC3=O)cc2[nH]1`
Result: N

Ask: For `CC1CCN(C(=O)CSCC(=O)Nc2nc(-c3cccs3)cs2)CC1` , what call appears in the results of this test?
Result: N

Ask: Hi, sorry to bother you, what did the test record for COc1ccc(-n2c(Cc3cccn3C)nnc2SCC(=O)NCC2CCCO2)cc1 (centres undefined) ?
Result: N

Ask: Short answer needed: outcome of this test for `COc1ccc(-c2nc3c(c(SCC(=O)N4CCOCC4)n2)COC(C)(C)C3)cc1` ?
Result: N

Ask: Kindly provide the recorded test outcome for the following compound: `Cc1ccc2nc(-c3ccccn3)cc(C(=O)N3CCN(c4ncccn4)CC3)c2c1`
Result: N

Ask: Each compound tested received a call. Report the one for `O=C(CN1c2cccc3cccc(c23)S1(=O)=O)N1CCOCC1` .
Result: N

Ask: Please state the recorded outcome for this compound: Cc1csc(NC(=O)C2CCCO2)n1 (centres undefined)
Result: N

Ask: Lab log entry: `Cc1onc(-c2c(Cl)cccc2Cl)c1C(N)=O` — outcome as called in the assay?
Result: N

Ask: Tell me the assay call for `CN(C)c1nc(N)nc(-c2nc3ccccc3s2)n1` please.
Result: N

Ask: Per the assay record, what outcome was assigned to `Cc1c(NC(=O)c2ccc(CN3CCc4ccccc4C3)cc2)c(=O)n(-c2ccccc2)n1C` ?
Result: N

Ask: What did this assay record as the result for `Cc1ccc2[nH]c(=O)c3cc(C(=O)NCCN4CCN(C)CC4)sc3c2c1` ?
Result: Y

Ask: Write down the call the test reported for this compound. Item: `Cc1ccc(Cn2nnc(C(=O)Nc3cccc(C)c3C)c2N)cc1`
Result: N

Ask: Look up the recorded call for CCC1(c2ccc(F)cc2)NC(=O)N(CC(=O)c2ccc[nH]2)C1=O (centres undefined) in this test.
Result: N

Ask: GET /call?item= `COc1ccc(S(=O)(=O)N(CC(=O)N2CCN(c3ccccc3OC)CC2)c2ccccc2)cc1` returns the recorded outcome of this test.
Result: N

Ask: // param item: `CC(=O)CCc1c(C)[nH]c2ccccc2c1=O` ; yields the recorded call
Result: N

Ask: Check the results log: what was the call for `CN(C)c1ccc(/C(=N\O)c2ccccc2)cc1` ?
Result: N

Ask: What call does the record list for `COc1ccc(Cl)cc1Nc1nc(NCCO)nc(N2CCCC2)n1` ?
Result: N

Ask: // return assay outcome for CC1CCN(c2c(NCc3ccc(C(=O)N4c5ccccc5CC4C)cc3)c(=O)c2=O)CC1 (centres undefined)
Result: N

Ask: # outcome recorded in this test, key = `Cc1c2cnn(CC(=O)N3CCN(c4ncccn4)CC3)c(=O)c2c(C)n1Cc1ccc(F)cc1`
Result: N

Ask: Recorded test call requested for `CC(=O)N1CCN=C1SCc1c(F)cccc1Cl`
Result: N

Ask: Returns: the outcome recorded for `Cc1cccc(C)c1OCc1nnc(SCC(=O)Nc2ccccc2F)o1` in this assay.
Result: N

Ask: I'd appreciate the recorded outcome for `Cc1oc2cc3c(C(=O)OCCN(C)C)c(C)oc3cc2c1C(=O)OCCN(C)C` from this test.
Result: Y

Ask: Could you please tell me the result logged for COc1ccccc1CNC(=O)C1CCC(CNc2c(N3CCOCC3)c(=O)c2=O)CC1 (centres undefined) in this assay?
Result: N

Ask: How was O=C(Cn1nc(Cc2cccnc2)c2ccccc2c1=O)NCC1CCCO1 (centres undefined) classified in this test?
Result: N

Ask: So what was the verdict on `COCCn1c(SCC(=O)Nc2cccc(OC)c2)nnc1-c1ccccc1` in this test?
Result: N

Ask: What was the test verdict on `COc1ccc(-c2cc(O)cc(O)c2)cc1` ?
Result: N

Ask: Record request — test call for COc1cccc(N2CCN(C(=O)C3C4C=CC5(CN(Cc6ccccc6Cl)C(=O)C35)O4)CC2)c1 (centres undefined)
Result: N
